Assayed system: T1, PIGQ peptide/HLA-A0201 complex (human, biotinylated (site not stated))
T1 construct: Negative control / counter target complex; also called PIGQ/HLA; PIGQ/HLA complex
Protocol: ELISA as in Example 3; biotinylated peptide/HLA complex coated at 50 nM on Neutravidin plates, IgG titrated, AP-conjugated goat anti-human IgG, RFU

Binder: Bibi (IgG1) (antibody, V domains shown) VH: EVQLVESGGGLVKPGGSLRLSCAASGFTFSSYSMNWVRQAPGKGLEWVSSISSSSSYIYYADSVKGRFTISRDNAKNSLYLQMNSLRAEDTAVYYCARTESVWHLGFDIWGQGTLVTVSS VL: DIQMTQSPSSVSASVGDRVTITCRASQGISSWLAWYQQKPGKAPKLLIYAASSLQSGVPSRFSGSGSGTDFTLTISSLQPEDFATYYCQQNHKYPITFGQGTKVEIKR
binding result: no binding

Binder: Fiwi (IgG1) (antibody, V domains shown) VH: EVQLVESGGGLVKPGGSLRLSCAASGFTFSNYWISWVRQAPGKGLEWVGRIKSKTYGGTTDYAEPVKGRFTISRDDSKNTLYLQMNSLKTEDTAVYYCARGRYPELGYFDLWGQGTLVTVSS VL: QSVLTQPPSVSAAPGQKVTISCSGSSSNIGNNYVSWYQQLPGTAPKLLIYDNNKRPSGIPDRFSGSKSGTSATLGITGLQTEDEADYYCGAWDSYLSVSFVFGGGTKLTVLG
binding result: no binding

Binder: Aali (IgG1) (antibody, V domains shown) VH: QVQLVESGGGLVKPGGSLRLSCAASGFTFSDHYISWIRQAPGKGLEWVSYISSSGSTTYYAESVKGRFTISRDNAKNSLYLQMNSLRAEDTAVYYCARTYAYRYDFDLWGQGTLVTVSS VL: QSVLTQPPSVSGAPGQRVTISCTGSSSNIGAGYDVHWYQQLPGTAPKLLIYGNSNRPSGVPDRFSGSKSGTSASLAITGLQAEDEADYYCQTWVHSYSTPVFGGGTKLTVLG
binding result: no binding
